Each recorded value in this set is attributed to ChEMBL document CHEMBL1140313.

Test: Oral bioavailability in rat (dose 3 mg/kg)
Assay type: ADME, organism-based
Details: in vivo
Below, each entry is listed alongside its reported bioavailability.

| molecule | measurementUnits | bioavailability |
| --- | --- | --- |
| CCN(CC)C1CCN(C(=O)Cn2c(-c3ccc(Cl)cc3)c(C3CCCCC3)c3ccc(C(=O)O)cc32)CC1 | % | 10 |
| CN1CCCC(CN(C)C(=O)Cn2c(-c3ccccc3)c(C3CCCCC3)c3ccc(C(=O)O)cc32)C1 (configuration not stated) | % | 1.9 |

###

Target: RNA-directed RNA polymerase (Hepacivirus hominis)
Test: Inhibitory activity against by hepatitis C virus NS5B polymerase
Categories are assigned from the measured IC50 using these intervals: range A (below 40 nM), range B (40 nM to below 100 nM), range C (100 nM or more)

| molecule | targetOrSystem | classification |
| --- | --- | --- |
| COc1ccc(-c2c(C3CCCCC3)c3ccc(C(=O)O)cc3n2CC(=O)N(C)C)cn1 | RNA-directed RNA polymerase (Hepacivirus hominis) | range B |
| CS(=O)(=O)N1CCN(C(=O)Cn2c(-c3ccc(Cl)cc3)c(C3CCCCC3)c3ccc(C(=O)O)cc32)CC1 | RNA-directed RNA polymerase (Hepacivirus hominis) | range A |
| CN(C)C(=O)Cn1c(-c2ccncc2)c(C2CCCCC2)c2ccc(C(=O)O)cc21 | RNA-directed RNA polymerase (Hepacivirus hominis) | range C |
| CN(C)C1CCN(C(=O)Cn2c(-c3ccc(Cl)cc3)c(C3CCCCC3)c3ccc(C(=O)O)cc32)C1 (stereo not drawn) | RNA-directed RNA polymerase (Hepacivirus hominis) | range A |
| CC(C)N(C)C(=O)Cn1c(-c2ccccc2)c(C2CCCCC2)c2ccc(C(=O)O)cc21 | RNA-directed RNA polymerase (Hepacivirus hominis) | range B |
| CN1CCN(C(=O)Cn2c(-c3ccccc3)c(C3CCCCC3)c3cc(C(=O)O)ccc32)CC1 | RNA-directed RNA polymerase (Hepacivirus hominis) | range C |
| CCc1c(C2CCCCC2)c2ccc(C(=O)O)cc2n1CC(=O)N1CCC(N(C)C)CC1 | RNA-directed RNA polymerase (Hepacivirus hominis) | range C |
| CN(C)C(=O)Cn1c(-c2ccoc2)c(C2CCCCC2)c2ccc(C(=O)O)cc21 | RNA-directed RNA polymerase (Hepacivirus hominis) | range A |
| CS(=O)(=O)N1CCN(C(=O)Cn2c(-c3ccccc3)c(C3CCCCC3)c3ccc(C(=O)O)cc32)CC1 | RNA-directed RNA polymerase (Hepacivirus hominis) | range A |
| O=C(Cn1c(-c2ccccc2)c(C2CCCCC2)c2ccc(C(=O)O)cc21)NCC1CC1 | RNA-directed RNA polymerase (Hepacivirus hominis) | range B |
| CN(C)Cc1cccc(-c2c(C3CCCCC3)c3ccc(C(=O)O)cc3n2CC(=O)N(C)C)c1 | RNA-directed RNA polymerase (Hepacivirus hominis) | range C |
| CN(C)C1CCN(C(=O)Cn2c(C3CCCCC3)c(C3CCCCC3)c3ccc(C(=O)O)cc32)CC1 | RNA-directed RNA polymerase (Hepacivirus hominis) | range B |
| CN(C)Cc1cc(-c2c(C3CCCCC3)c3ccc(C(=O)O)cc3n2CC(=O)N(C)C)ccc1Cl | RNA-directed RNA polymerase (Hepacivirus hominis) | range B |
| CN(C)Cc1ccc(-c2c(C3CCCCC3)c3ccc(C(=O)O)cc3n2CC(=O)N(C)C)cc1 | RNA-directed RNA polymerase (Hepacivirus hominis) | range C |
| CN(C)C1CCN(C(=O)Cn2c(-c3ccccc3)c(C3CCCCC3)c3ccc(C(=O)O)cc32)C1 (stereo not drawn) | RNA-directed RNA polymerase (Hepacivirus hominis) | range B |
| CC(C)N(C)C(=O)Cn1c(-c2ccc(Cl)cc2)c(C2CCCCC2)c2ccc(C(=O)O)cc21 | RNA-directed RNA polymerase (Hepacivirus hominis) | range A |

###

Molecular target: RNA-directed RNA polymerase (Hepacivirus hominis, UniProt O39930)
Sequence (O39930 whole entry): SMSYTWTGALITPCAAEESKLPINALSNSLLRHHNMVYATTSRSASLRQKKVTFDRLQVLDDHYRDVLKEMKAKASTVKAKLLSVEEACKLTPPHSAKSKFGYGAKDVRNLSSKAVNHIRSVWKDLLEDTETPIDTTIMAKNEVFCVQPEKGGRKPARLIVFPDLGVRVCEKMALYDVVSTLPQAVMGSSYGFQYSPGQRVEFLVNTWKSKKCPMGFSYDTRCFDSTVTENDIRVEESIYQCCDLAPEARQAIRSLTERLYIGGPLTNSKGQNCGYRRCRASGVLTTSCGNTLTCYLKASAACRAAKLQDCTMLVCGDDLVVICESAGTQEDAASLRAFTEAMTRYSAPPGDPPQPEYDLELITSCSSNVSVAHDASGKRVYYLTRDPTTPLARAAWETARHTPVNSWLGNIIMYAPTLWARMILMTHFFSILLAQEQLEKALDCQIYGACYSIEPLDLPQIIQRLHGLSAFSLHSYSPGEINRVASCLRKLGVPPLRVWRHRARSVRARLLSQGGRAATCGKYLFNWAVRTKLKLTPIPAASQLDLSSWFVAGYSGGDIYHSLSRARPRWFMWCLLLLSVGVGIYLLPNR
Test: Inhibitory activity against by hepatitis C virus NS5B polymerase
Below, each entry is listed alongside its reported IC50.

| compound | targetOrSystem | measurementUnits | IC50 |
| --- | --- | --- | --- |
| CN1CCCC(CN(C)C(=O)Cn2c(-c3ccc(Cl)cc3)c(C3CCCCC3)c3ccc(C(=O)O)cc32)C1 (centres undefined) | RNA-directed RNA polymerase (Hepacivirus hominis, UniProt O39930) | nM | 12 |
| O=C(O)c1ccc2c(C3CCCCC3)c(-c3ccc(Cl)cc3)n(CC(=O)N3CCS(=O)(=O)CC3)c2c1 | RNA-directed RNA polymerase (Hepacivirus hominis, UniProt O39930) | nM | 11 |
| CN1CCCC(CN(C)C(=O)Cn2c(-c3ccccc3)c(C3CCCCC3)c3ccc(C(=O)O)cc32)C1 (centres undefined) | RNA-directed RNA polymerase (Hepacivirus hominis, UniProt O39930) | nM | 18 |
| CN(C)C(=O)Cn1c(-c2cccnc2)c(C2CCCCC2)c2ccc(C(=O)O)cc21 | RNA-directed RNA polymerase (Hepacivirus hominis, UniProt O39930) | nM | 332 |

###

Assay: Plasma half life following 1 mg/kg iv administration in dog
Type: ADME, organism-based, Canis lupus familiaris
Design: dose 1 mg/kg, route intravenous

| chemicalSmiles | half-life / h |
| --- | --- |
| CCN(CC)C1CCN(C(=O)Cn2c(-c3ccc(Cl)cc3)c(C3CCCCC3)c3ccc(C(=O)O)cc32)CC1 | 5 |

###

Target: RNA-directed RNA polymerase (Hepacivirus hominis, UniProt O39930)
Assay: Inhibitory activity against by hepatitis C virus NS5B polymerase
Below, each entry is listed alongside its reported IC50.
observable: IC50

| chemicalSmiles | observable | reportedValue |
| --- | --- | --- |
| CN1CCN(C(=O)Cn2c(-c3ccccc3)c(C3CCCC3)c3ccc(C(=O)O)cc32)CC1 | IC50 | 68 nM |
| CN(C)C(=O)CN(C)C(=O)Cn1c(-c2ccc(Cl)cc2)c(C2CCCCC2)c2ccc(C(=O)O)cc21 | IC50 | 17 nM |
| O=C(Cn1c(-c2ccc(Cl)cc2)c(C2CCCCC2)c2ccc(C(=O)O)cc21)NCC1CC1 | IC50 | 8 nM |
| CN1CCN(C(=O)Cn2c(-c3ccccc3)c(C3CCCCC3)c3ccc(C(=O)O)cc32)CC1 | IC50 | 39 nM |
| O=C(O)c1ccc2c(C3CCCCC3)c(-c3ccccc3)n(CC(=O)N3CCS(=O)(=O)CC3)c2c1 | IC50 | 43 nM |

###

System: Huh-7
Assay: Effective concentration required to inhibit replication of subgenomic HCV RNA in HUH-7 cells
Assay type: functional, cell-based
Settings: Homo sapiens
pEC50: −log10 of the molar value.
observable: pEC50

| compound | boundType | reportedValue |
| --- | --- | --- |
| CN1CCCC(CN(C)C(=O)Cn2c(-c3ccccc3)c(C3CCCC3)c3ccc(C(=O)O)cc32)C1 (stereo not drawn) | = | 6.40 |
| CN(C)C1CCN(C(=O)Cn2c(-c3ccc(Cl)cc3)c(C3CCCCC3)c3ccc(C(=O)O)cc32)C1 (stereo not drawn) | = | 6.70 |
| CN1CCN(C(=O)Cn2c(-c3ccccc3)c(C3CCCCC3)c3cc(C(=O)O)ccc32)CC1 | = | 5.46 |
| CN1CCN(C(=O)Cn2c(-c3ccc(Cl)cc3)c(C3CCCCC3)c3ccc(C(=O)O)cc32)CC1 | = | 6.52 |
| O=C(O)c1ccc2c(c1)c(C1CCCCC1)c(-c1ccccc1)n2CC(=O)N1CCS(=O)(=O)CC1 | < | 5.30 |
| CS(=O)(=O)N1CCN(C(=O)Cn2c(-c3ccc(Cl)cc3)c(C3CCCCC3)c3ccc(C(=O)O)cc32)CC1 | = | 6.30 |
| O=C(Cn1c(-c2ccc(Cl)cc2)c(C2CCCCC2)c2ccc(C(=O)O)cc21)NCC1CC1 | = | 5.85 |
| O=C(Cn1c(-c2ccccc2)c(C2CCCCC2)c2ccc(C(=O)O)cc21)NCC1CC1 | = | 5.89 |

###

Assay: Plasma clearance in dod
Type: ADME, organism-based, Canis lupus familiaris
Conditions: dog, read-out: Clp

| chemicalSmiles | measurementUnits | clearance |
| --- | --- | --- |
| CCN(CC)C1CCN(C(=O)Cn2c(-c3ccc(Cl)cc3)c(C3CCCCC3)c3ccc(C(=O)O)cc32)CC1 | mL/min/kg | 9 |

###

Test: Plasma clearance after intravenous administration of 1 mg/kg in dog
Type: ADME, organism-based, Canis lupus familiaris
Set-up: dose 1 mg/kg, route intravenous
Details: read-out: Clp

| chemicalSmiles | clearance / mL/min/kg |
| --- | --- |
| CCN(CC)C1CCN(C(=O)Cn2c(-c3ccc(Cl)cc3)c(C3CCCCC3)c3ccc(C(=O)O)cc32)CC1 | 9 |

###

Tested on: Huh-7
Test: Effective concentration required to inhibit replication of subgenomic HCV RNA in HUH-7 cells
Assay type: functional, cell-based
Details: Homo sapiens
pEC50: −log10 of the molar value.
Below, each entry is listed alongside its reported pEC50.
observable: pEC50

| compound | targetOrSystem | boundType | reportedValue |
| --- | --- | --- | --- |
| CN(C)C1CCN(C(=O)Cn2c(-c3ccccc3)c(C3CCCC3)c3ccc(C(=O)O)cc32)C1 (stereo not given) | Huh-7 | = | 5.82 |
| CN1CCCC(CN(C)C(=O)Cn2c(-c3ccccc3)c(C3CCCCC3)c3cc(C(=O)O)ccc32)C1 (stereo not given) | Huh-7 | < | 5.30 |
| CC(C)N(C)C(=O)Cn1c(-c2ccccc2)c(C2CCCCC2)c2cc(C(=O)O)ccc21 | Huh-7 | < | 5.30 |
| CN1CCCC(CN(C)C(=O)Cn2c(-c3ccccc3)c(C3CCCCC3)c3ccc(C(=O)O)cc32)C1 (stereo not given) | Huh-7 | = | 6.52 |
| O=C(O)c1ccc2c(C3CCCC3)c(-c3ccccc3)n(CC(=O)N3CCS(=O)(=O)CC3)c2c1 | Huh-7 | < | 5.30 |
| CS(=O)(=O)N1CCN(C(=O)Cn2c(-c3ccccc3)c(C3CCCCC3)c3cc(C(=O)O)ccc32)CC1 | Huh-7 | < | 5.30 |
| CN(C)C(=O)CN(C)C(=O)Cn1c(-c2ccc(Cl)cc2)c(C2CCCCC2)c2ccc(C(=O)O)cc21 | Huh-7 | = | 5.96 |
| O=C(Cn1c(-c2ccccc2)c(C2CCCC2)c2ccc(C(=O)O)cc21)NCC1CC1 | Huh-7 | < | 5.30 |
| O=C(O)c1ccc2c(C3CCCCC3)c(-c3ccc(Cl)cc3)n(CC(=O)N3CCS(=O)(=O)CC3)c2c1 | Huh-7 | = | 6.05 |
| CN1CCN(C(=O)Cn2c(-c3ccccc3)c(C3CCCCC3)c3ccc(C(=O)O)cc32)CC1 | Huh-7 | = | 6.30 |
| CN(C)C1CCN(C(=O)Cn2c(-c3ccccc3)c(C3CCCCC3)c3ccc(C(=O)O)cc32)C1 (stereo not given) | Huh-7 | = | 6.15 |
| CS(=O)(=O)N1CCN(C(=O)Cn2c(-c3ccccc3)c(C3CCCCC3)c3ccc(C(=O)O)cc32)CC1 | Huh-7 | = | 6.05 |
| CN1CCCC(CN(C)C(=O)Cn2c(-c3ccc(Cl)cc3)c(C3CCCCC3)c3ccc(C(=O)O)cc32)C1 (stereo not given) | Huh-7 | = | 6.52 |
| CS(=O)(=O)N1CCN(C(=O)Cn2c(-c3ccccc3)c(C3CCCC3)c3ccc(C(=O)O)cc32)CC1 | Huh-7 | < | 5.30 |
| O=C(Cn1c(-c2ccccc2)c(C2CCCCC2)c2cc(C(=O)O)ccc21)NCC1CC1 | Huh-7 | < | 5.30 |
